Tested on: Histoplasma capsulatum
Type: cell-based
Please go through the items and note down their MIC, H. capsulatum.
Answers are plain numbers, in µg/mL.

Sample records with MIC, H. capsulatum:
Compound | MIC, H. capsulatum [µg/mL]
Cc1ccc(N2CCN(c3ccc(-n4cnn([C@H](C)[C@](O)(Cn5cncn5)c5ccc(F)cc5F)c4=O)cc3)CC2)c(C)c1 [Compound 19] | 0.5
O=c1n(-c2ccc(N3CCN(c4ccc(F)cc4Cl)CC3)cc2)cnn1CC(O)(Cn1cncn1)c1ccc(F)cc1F (stereo not drawn) [Compound 58] | 0.004
O=c1n(-c2ccc(N3CCN(c4ccc(F)c(F)c4)CC3)cc2)cnn1CC(O)(Cn1cncn1)c1ccc(F)cc1F (stereo not drawn) [Compound 55] | 0.004
C[C@@H](n1ncn(-c2ccc(N3CCN(c4ccc([N+](=O)[O-])cc4[N+](=O)[O-])CC3)cc2)c1=O)[C@@](O)(Cn1cncn1)c1ccc(F)cc1F [Compound 4] | 0.5

Kindly consider the entry below.
Find the recorded MIC, H. capsulatum belonging to Cc1ccc(N2CCN(c3ccc(-n4cnn([C@H](C)[C@](O)(Cn5cncn5)c5ccc(F)cc5F)c4=O)cc3)CC2)cc1Cl [Compound 17] and report it. 0.25
